measurement-target: Tau-Synaptogyrin3 interaction (Homo sapiens, UniProt O43761+P10636)
Sequence (P10636 1-441 isoform P10636-8): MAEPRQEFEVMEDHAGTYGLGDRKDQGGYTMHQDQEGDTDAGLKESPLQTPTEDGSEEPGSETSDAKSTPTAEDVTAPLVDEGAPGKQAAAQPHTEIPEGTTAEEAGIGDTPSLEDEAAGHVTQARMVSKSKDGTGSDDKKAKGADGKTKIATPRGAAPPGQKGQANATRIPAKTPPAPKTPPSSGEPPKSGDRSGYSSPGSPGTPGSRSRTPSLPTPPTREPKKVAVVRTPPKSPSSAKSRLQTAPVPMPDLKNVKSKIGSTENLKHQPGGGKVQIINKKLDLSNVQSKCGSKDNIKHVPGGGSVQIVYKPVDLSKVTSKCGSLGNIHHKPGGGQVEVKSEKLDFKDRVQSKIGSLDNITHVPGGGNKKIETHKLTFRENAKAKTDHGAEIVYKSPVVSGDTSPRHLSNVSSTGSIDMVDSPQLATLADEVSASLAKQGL
Sequence (O43761 whole entry): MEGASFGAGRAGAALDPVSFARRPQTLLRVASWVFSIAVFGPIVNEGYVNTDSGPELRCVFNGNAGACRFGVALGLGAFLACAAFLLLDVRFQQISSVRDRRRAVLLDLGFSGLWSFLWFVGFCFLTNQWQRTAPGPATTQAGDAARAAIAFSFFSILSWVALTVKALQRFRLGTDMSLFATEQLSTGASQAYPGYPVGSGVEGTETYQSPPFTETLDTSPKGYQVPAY
protocol-details: Cell-based split luciferase (NanoBit) protein complementary assay for Tau-Synaptogyrin3 interaction in stable cell line HEK293T-TK252-1E2
test-conditions: HEK293T-TK252-1E2 cells, 48 hrs compound treatment, L/F value (luciferase activity/fluorescent intensity) compared to DMSO control
Protocol: Live cell luciferase assay: Live cell luciferase activity was measured using NanoGlo® Live Cell Assay System (Cat# N2012. Promega, WI, USA), according to manufacturer's instruction. […] 3 µmol of 1,728 compounds were purchased from Otava Chemicals MB (Vilniaus, Lithuania), dissolved into 300 µl DMSO (10 mM) and stored at -80°C. […] After 48 hrs compound treatment, the cells were washed once with OptiMEM and live cell luciferase activity, fluorescent intensity and fluorescence area scan was measured. […]
readout-name: IC50

> print(dat)
                                   compound                        measurement.target          val
1  Cc1ccc(C(=O)N2CCc3[nH]c4ccc(-c5ccc(C#N)cc5)cc4c3C2)cc1 [Formula 52]  Tau-Synaptogyrin3 interaction (Homo sapiens, UniProt O43761+P10636)       < 3 µM
2  COc1ccc(C(=O)N2CCc3[nH]c4ccc(-c5ccccc5)cc4c3C2)cc1 [Formula 17]  Tau-Synaptogyrin3 interaction (Homo sapiens, UniProt O43761+P10636)   3 to 12 µM
3  Cc1ccc(-c2ccc3[nH]c4c(c3c2)CN(C(=O)c2cccnc2)CC4)cc1 [Formula 29]  Tau-Synaptogyrin3 interaction (Homo sapiens, UniProt O43761+P10636)       < 3 µM
4  Cc1ccccc1-c1ccc2[nH]c3c(c2c1)CN(C(=O)c1cccc(Cl)c1)CC3 [Formula 26]  Tau-Synaptogyrin3 interaction (Homo sapiens, UniProt O43761+P10636)  12 to 25 µM
5  Cc1ccccc1-c1ccc2[nH]c3c(c2c1)CN(C(=O)c1cccnc1)CC3 [Formula 20]  Tau-Synaptogyrin3 interaction (Homo sapiens, UniProt O43761+P10636)   3 to 12 µM
6  CN(C)c1ccc(-c2ccc3[nH]c4c(c3c2)CN(C(=O)c2ccccc2)CC4)cc1 [Formula 73]  Tau-Synaptogyrin3 interaction (Homo sapiens, UniProt O43761+P10636)   3 to 12 µM
7  Cc1ccc2[nH]c3c(c2c1)CN(C(=O)c1ccccc1)CC3 [Formula 68]  Tau-Synaptogyrin3 interaction (Homo sapiens, UniProt O43761+P10636)   3 to 12 µM
8  O=C(N1CCOCC1)N1CCc2[nH]c3ccc(-c4ccccc4)cc3c2C1 [Formula 19]  Tau-Synaptogyrin3 interaction (Homo sapiens, UniProt O43761+P10636)   3 to 12 µM

Q: Reported IC50 for Cc1cnc(C(=O)N2CCc3[nH]c4ccc(-c5ccccc5)cc4c3C2)cn1 [Formula 6] : what is it?
Result: 12 to 25 µM

Q: Another: N#Cc1ccc(-c2ccc3[nH]c4c(c3c2)CN(C(=O)c2ccccc2)CC4)cc1 [Formula 50]
Result: < 3 µM

Q: Again, but for O=C(c1cccc(Cl)c1)N1CCc2[nH]c3ccc(-c4ccccc4)cc3c2C1 [Formula 13]
Result: 12 to 25 µM

Q: Same question for O=C(c1cncnc1)N1CCc2[nH]c3ccc(-c4ccccc4)cc3c2C1 [Formula 8] please.
Result: 3 to 12 µM

* * *

measurement-target: Tau-Synaptogyrin3 interaction (Homo sapiens, UniProt O43761+P10636)
protocol-details: Cell-based split luciferase (NanoBit) protein complementary assay for Tau-Synaptogyrin3 interaction in stable cell line HEK293T-TK252-1E2
test-conditions: HEK293T-TK252-1E2 cells, 48 hrs compound treatment, L/F value (luciferase activity/fluorescent intensity) compared to DMSO control
pIC50: −log10 of the molar value.
readout-name: pIC50

Solved cases below.
> print(dat)
                                   compound           val
1  Cc1ccc(-c2ccc3[nH]c4c(c3c2)CN(C(=O)c2cccnc2)CC4)cn1 [Formula 48]  4.60 to 4.92
2  N#Cc1cccc(-c2ccc3[nH]c4c(c3c2)CN(C(=O)c2ccccc2)CC4)c1 [Formula 58]  4.92 to 5.52
3  O=C(c1cccnc1)N1CCc2[nH]c3cc(-c4ccccc4)ccc3c2C1 [Formula 35]  4.92 to 5.52

Q: Value lookup for pIC50; key = Cc1ccc(C(=O)N2CCc3[nH]c4ccc(-c5cccc(C#N)c5)cc4c3C2)cn1 [Formula 57]
Result: 4.92 to 5.52

* * *

measurement-target: Tau-Synaptogyrin3 interaction (Homo sapiens, UniProt O43761+P10636)
protocol-details: Cell-based split luciferase (NanoBit) protein complementary assay for Tau-Synaptogyrin3 interaction in stable cell line HEK293T-TK252-1E2
test-conditions: HEK293T-TK252-1E2 cells, 48 hrs compound treatment, L/F value (luciferase activity/fluorescent intensity) compared to DMSO control
Reported IC50 values are given for each entry in this list.

> print(dat)
                                 cpd.smiles         val
1  Cc1ccc(-c2ccc3[nH]c4c(c3c2)CN(C(=O)c2ccnc(C)c2)CC4)cc1  3 to 12 µM

Q: What does the record list as IC50 for O=C(c1ccccc1)N1CCc2[nH]c3ccc(-c4ccc(Cl)cc4)cc3c2C1 ?
Result: < 3 µM

Q: Similarly, O=C(c1ccccc1)N1CCc2[nH]c3ccc(-c4cccnc4)cc3c2C1 ?
Result: 12 to 25 µM

Q: Cool, now COc1ccc(C(=O)N2CCc3[nH]c4ccc(-c5ccc(C)cc5)cc4c3C2)cc1
Result: 3 to 12 µM

Q: Another compound: Cn1ccc2c(C(=O)N3CCc4[nH]c5ccc(-c6ccccc6)cc5c4C3)cccc21
Result: 3 to 12 µM

Q: Cc1cncc(C(=O)N2CCc3[nH]c4ccc(-c5ccccc5C)cc4c3C2)c1 ?
Result: 3 to 12 µM

Q: Can you handle Cc1cncc(C(=O)N2CCc3[nH]c4ccc(-c5ccccc5)cc4c3C2)c1 next?
Result: 3 to 12 µM

* * *

measurement-target: Tau-Synaptogyrin3 interaction (Homo sapiens, UniProt O43761+P10636)
protocol-details: Cell-based split luciferase (NanoBit) protein complementary assay for Tau-Synaptogyrin3 interaction in stable cell line HEK293T-TK252-1E2
test-conditions: HEK293T-TK252-1E2 cells, 48 hrs compound treatment, L/F value (luciferase activity/fluorescent intensity) compared to DMSO control
// reported IC50 for each item listed

Q: I am curious: what IC50 value has been reported for Cc1cccc(-c2ccc3[nH]c4c(c3c2)CN(C(=O)c2cccnc2)CC4)c1 ?
Result: < 3 µM

Q: And Cc1ccc(C(=O)N2CCc3[nH]c4ccc(-c5ccc(C)nc5)cc4c3C2)cn1 ?
Result: 12 to 25 µM

Q: Same question for Cc1ccc(-c2ccc3[nH]c4c(c3c2)CN(C(=S)Nc2ccccc2)CC4)cc1 please.
Result: 3 to 12 µM

Q: Also Cc1ccc(-c2ccc3[nH]c4c(c3c2)CN(C(=O)C2CCCCC2)CC4)cc1 , if possible.
Result: 3 to 12 µM

Q: Next record, please: Cc1ccc(C(=O)N2CCc3[nH]c4ccc(-c5ccccc5)cc4c3C2)cc1
Result: < 3 µM

Every entry's value here was drawn from patent EP4682146A1.
